Target: T1, human CD8αα homodimer, recombinant protein (Acro Biosystems) (human, UniProt P01732 22-182)
T1 construct: also called CD8αα antigen; biotinylated CD8α recombinant protein (CDA-H82E3)
T1 sequence (P01732 22-182 limits assumed): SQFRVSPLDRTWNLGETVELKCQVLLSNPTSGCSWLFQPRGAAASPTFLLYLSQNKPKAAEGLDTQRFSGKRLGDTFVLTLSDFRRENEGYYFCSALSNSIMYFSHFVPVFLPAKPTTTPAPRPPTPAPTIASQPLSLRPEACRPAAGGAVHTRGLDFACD
Experiment: BLI kinetic rate analysis, Fab fragment (temperature not given)
The entries below come with measured Kd values attached.
Quick note: give the figure in nM, leave out the unit.

Example binders with recorded Kd:
[[record]]
binder = "CBD1444 Fab (VL D30S of CBD1033) (Fab, V domains shown) VH: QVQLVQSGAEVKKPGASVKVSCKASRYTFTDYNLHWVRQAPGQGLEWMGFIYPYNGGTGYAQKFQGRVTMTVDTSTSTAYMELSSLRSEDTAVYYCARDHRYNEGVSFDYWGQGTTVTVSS VL: DIQLTQSPSSLSASVGDRATITCRASESVSGFGNSFMNWYQQKPGKAPKLLIYLASNLESGVPSRFSGSGSGTDFTLTISSVQPEDFATYYCQQNNEDPYTFGQGTKLEIK"
assay_result = 7.69

[[record]]
binder = "CBD1033 Fab (h1017-H2 / h1017-L2) (Fab, V domains shown, Expressed as F(ab) fragment; also called CBD1033 Fab molecule) VH: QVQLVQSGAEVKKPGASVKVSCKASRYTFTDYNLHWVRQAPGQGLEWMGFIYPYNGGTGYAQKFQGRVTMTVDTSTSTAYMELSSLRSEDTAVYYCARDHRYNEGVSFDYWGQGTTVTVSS VL: DIQLTQSPSSLSASVGDRATITCRASESVDGFGNSFMNWYQQKPGKAPKLLIYLASNLESGVPSRFSGSGSGTDFTLTISSVQPEDFATYYCQQNNEDPYTFGQGTKLEIK"
assay_result = 5.5


Lab note: next binder to report on.
// Kd lookup, key: CBD1443 Fab (VL D30E of CBD1033) (Fab, V domains shown) VH: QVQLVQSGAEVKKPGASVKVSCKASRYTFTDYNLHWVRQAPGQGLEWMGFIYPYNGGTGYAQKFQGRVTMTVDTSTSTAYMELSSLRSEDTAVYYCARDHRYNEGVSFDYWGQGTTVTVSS VL: DIQLTQSPSSLSASVGDRATITCRASESVEGFGNSFMNWYQQKPGKAPKLLIYLASNLESGVPSRFSGSGSGTDFTLTISSVQPEDFATYYCQQNNEDPYTFGQGTKLEIK 10
